- System: EKVX NSCLC
- test-description: NCI tumour cell line growth inhibition, 48 h
measurement-kind: TGI

In [3]: df
Out[3]:
                                   compound  reported_result
0  CCCCC[C@H]1C/C=C2/C(=O)C=C[C@@H]2C/C=C\CCCC(=O)O[C@@H](CCCCC)C/C=C2/C(=O)C=C[C@@H]2C/C=C\CCCC(=O)O1          1.03 µM

// returns reported TGI for input O=CN/C=C/c1cccc(O)c1
> 96.6 µM

# repeat for CC[C@@H]1CC[C@@H]2[C@H](CC[C@]3(C)[C@@H](OS(=O)(=O)c4ccc(C)cc4)CC[C@@H]23)[C@H]1COS(=O)(=O)c1ccc(C)cc1
> 100 µM

Try this compound next: Cc1cn(C2CC(O)C(COC(=O)NCCC(F)(F)C(F)(F)C(F)(F)C(F)(F)F)O2)c(=O)[nH]c1=O (centres undefined)
> 100 µM
